target: Human Factor XIa (Homo sapiens (Human), UniProt P03951); assay: Factor XIa enzyme activity (chromogenic substrate S-2366); assay type: biochemical; conditions: Table 2, comparison with comparative compounds; read-out: In vitro FXIa inhibitory activity IC50
Sequence (P03951 388-625): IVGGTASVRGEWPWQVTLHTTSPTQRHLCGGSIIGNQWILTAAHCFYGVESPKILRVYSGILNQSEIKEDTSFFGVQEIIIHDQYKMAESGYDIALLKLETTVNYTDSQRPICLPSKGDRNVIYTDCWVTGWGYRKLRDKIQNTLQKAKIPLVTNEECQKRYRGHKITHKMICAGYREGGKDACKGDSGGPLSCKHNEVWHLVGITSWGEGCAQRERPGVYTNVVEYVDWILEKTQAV
Sequence (P03951 19-387 partner): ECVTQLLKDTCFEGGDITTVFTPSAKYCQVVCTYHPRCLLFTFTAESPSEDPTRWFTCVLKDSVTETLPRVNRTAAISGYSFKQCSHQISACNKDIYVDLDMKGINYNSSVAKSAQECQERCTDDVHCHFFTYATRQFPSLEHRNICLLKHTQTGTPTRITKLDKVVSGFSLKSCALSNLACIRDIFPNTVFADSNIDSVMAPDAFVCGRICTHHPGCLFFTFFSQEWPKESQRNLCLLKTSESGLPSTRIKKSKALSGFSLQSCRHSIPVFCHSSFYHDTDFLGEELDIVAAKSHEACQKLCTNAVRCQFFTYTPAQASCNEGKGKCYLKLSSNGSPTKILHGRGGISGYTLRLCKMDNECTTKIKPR
pIC50: −log10 of the molar value.
reported_endpoint: pIC50

P. COC(=O)Nc1ccc(-c2[nH]c(Cn3ccc(-c4cc(Cl)ccc4-n4cnnn4)cc3=O)nc2Cl)cc1
Q. COC(=O)Nc1ccc(-c2[nH]c(C3CCc4cc(-c5cc(Cl)ccc5-n5cnnn5)cc(=O)n43)nc2Cl)cc1 (centres unmarked)
Q) Of P and Q , whose reported pIC50 is the larger number? Bench note: the answer is the label of the chosen record.
A) P

====

molecular target: Human Factor XIa (Homo sapiens (Human), UniProt P03951); test: Factor XIa enzyme activity (chromogenic substrate S-2366); format: biochemical; settings: human Factor XIa 0.1 U/mL, 300 μM S-2366, pH7.4; read-out: In vitro FXIa inhibitory activity IC50
Counter-ions that a name gives are not always drawn.
reported_endpoint: IC50 (nM)

> print(dat)
                                   compound  reported.endpoint  meas.value
1  O=C(O)c1cc(-c2cnc([C@@H]3CCc4cc(-c5cc(Cl)ccc5-n5cnnn5)cc(=O)n43)[nH]2)cs1 [Example 363, hydrochloride]               IC50         1.4
2  COC(=O)Nc1ccc(-c2cnc(C(Cc3cccnc3)n3ccc(-c4cc(Cl)ccc4-n4cnnn4)cc3=O)[nH]2)cc1 (centres unmarked)               IC50         5.7
3  O=C(O)c1ccc(-c2cnc([C@@H]3CCc4cc(-c5cc(Cl)ccc5-n5cnnn5)cc(=O)n43)[nH]2)s1               IC50         4.2
4  Nc1ccc(-c2cnc([C@@H]3CCc4cc(-c5cc(Cl)ccc5-n5cnnn5)cc(=O)n43)[nH]2)c(Cl)n1               IC50         2.8
5  COC(=O)Nc1ccc(-c2nc(Cl)c(C3CCc4cc(-c5cc(Cl)ccc5-n5cnnn5)cc(=O)n43)[nH]2)cc1 (centres unmarked)               IC50         4.8

1. O=C(O)c1cc(-c2cnc([C@@H]3CCc4c(Cl)c(-c5cc(Cl)ccc5-n5cnnn5)cc(=O)n43)[nH]2)cs1 [Example 391, trifluoroacetate]
2. COCCOC(=O)Nc1ccc(-c2cnc(C3CCc4cc(-c5cc(Cl)ccc5-n5cnnn5)cc(=O)n43)[nH]2)cc1 (centres unmarked)
Q) Parameter check: reported IC50 is higher for which label, 1 or 2 ? Write the label of whichever entry you select.
A) 2

P. COC(=O)Nc1ccc(-c2[nH]c([C@@H]3CCc4cc(-c5cc(Cl)ccc5-n5cnnn5)cc(=O)n43)nc2Cl)nc1
Q. O=C(O)c1ccc(-c2cnc([C@@H]3CCc4c(Cl)c(-c5cc(Cl)ccc5-n5cnnn5)cc(=O)n43)[nH]2)s1 [Example 387, hydrochloride]
Q) Which shows the larger IC50 value: P or Q ? To answer, give the label that identifies your chosen option.
A) P

P. COC(=O)Nc1ccc(-c2cnc([C@@H]3CCc4cc(-c5cc(Cl)ccc5-n5cc(C#N)nn5)cc(=O)n43)[nH]2)cc1
Q. O=C1CCc2cc(-c3c[nH]c(C4CCc5cc(-c6cc(Cl)ccc6-n6cnnn6)cc(=O)n54)n3)ccc2N1 (centres unmarked)
Q) Hey, which is lower on measured IC50, P or Q ? Respond with the label that goes with your answer.
A) P

A. O=C(O)c1cc(-c2nc(F)c(C3CCc4cc(-c5cc(Cl)ccc5-n5cnnn5)cc(=O)n43)[nH]2)cs1 (centres unmarked)
B. COC(=O)Nc1ccc(-c2cnc(C(C)n3ccc(-c4cc(Cl)ccc4-n4cnnn4)cc3=O)[nH]2)cc1 (centres unmarked)
Q) Out of A and B , name the one with the higher IC50. Please indicate the selected item by its label.
A) B
(B: 14 nM, A: 1.7 nM)

====

test: Pharmacokinetic (PK) study of the compound which has an ester group(s) in rat; type: in vivo; conditions: plasma, po, fasted male Crj:CD(SD) rats, single 3 mg/kg p.o., analyte: administered ester compound, read-out: rat plasma concentration of ester compound after po administration Cmax at 3mpk
reported_endpoint: Cmax (nM)
Answer in nM, number only, no unit symbol.

CCOC(=O)c1ccc(-c2cnc([C@@H]3CCc4cc(-c5cc(Cl)ccc5-n5cnnn5)cc(=O)n43)[nH]2)s1 [Example 401] yielded Cmax of 960

====

biological target: Human Factor XIa (Homo sapiens (Human)); assay: Factor XIa enzyme activity (chromogenic substrate S-2366); format: biochemical; conditions: human Factor XIa 0.1 U/mL, 300 μM S-2366, pH7.4; read-out: In vitro FXIa inhibitory activity IC50
Structures can show the parent of a compound that is named as a salt.
reported_endpoint: IC50 (nM)

Some entries whose results are on file:
> print(dat)
                                   molecule  unit.spec  meas.value
1  O=C(O)c1scc(-c2cnc([C@@H]3CCc4cc(-c5cc(Cl)ccc5-n5cnnn5)cc(=O)n43)[nH]2)c1F         nM         1.6
2  Cc1cc(-c2cc(Cl)ccc2-n2cnnn2)cc(=O)n1Cc1ncc(-c2csc(C(=O)O)c2)[nH]1 [Example 400, hydrochloride]         nM          13
3  O=C(O)c1cc(-c2cnc([C@@H]3CCc4nc(-c5cc(Cl)ccc5-n5cnnn5)cc(=O)n43)[nH]2)cs1 [Example 392, hydrochloride]         nM         2.1

a. Nc1ccc(-c2cnc([C@@H]3CCc4cc(-c5cc(Cl)ccc5-n5cnnn5)cc(=O)n43)[nH]2)c(F)n1
b. COC(=O)Nc1ccc(-c2[nH]c(C3CCc4cc(-c5cc(Cl)ccc5-n5cnnn5)cc(=O)n43)nc2Cl)cc1 (stereo not shown)
c. CCC(c1nc(-c2ccc(NC(=O)OC)cc2)c(Cl)[nH]1)n1ccc(-c2cc(Cl)ccc2-n2cnnn2)cc1=O (stereo not shown)
d. Nc1ccc(-c2[nH]c([C@@H]3CCc4cc(-c5cc(Cl)ccc5-n5cnnn5)cc(=O)n43)nc2Cl)cn1
Q) With regard to IC50, arrange the entries in ascending order, please. Give me the labels in the order the question wants.
A) d, a, c, b
(d: 1.5 nM, a: 3.8 nM, c: 7.2 nM, b: 15 nM)

====

assay: Rat oral administration test (plasma concentration via FXIa inhibitory activity); type: in vivo; settings: fasted male Crj:CD(SD)IGS rats, single 3 mg/kg p.o., 20% wellsolve, read-out: rat plasma concentration after po administration Cmax at 3 mpk
reported_endpoint: Cmax (nM)

Take a look at these entries with their results.
> print(dat)
                                   compound  reported.endpoint  meas.value
1  COC(=O)Nc1ccc(-c2[nH]c([C@H](C)NC(=O)/C=C/c3cc(Cl)ccc3-n3cnnn3)nc2Cl)cc1 [Comp Ex 2, reference compound]               Cmax          25
2  COC(=O)Nc1ccc(-c2[nH]c(Cn3ccc(-c4cc(Cl)ccc4-n4cnnn4)cc3=O)nc2Cl)cc1               Cmax         510

A. COC(=O)Nc1ccc(-c2[nH]c(C3CCc4cc(-c5cc(Cl)ccc5-n5cnnn5)cc(=O)n43)nc2Cl)cc1 (stereo not drawn)
B. COC(=O)Nc1ccc(-c2[nH]c(CNC(=O)/C=C/c3cc(Cl)ccc3-n3cnnn3)nc2Cl)cc1 [Comp Ex 3, reference compound]
C. COC(=O)Nc1ccc(-c2[nH]c([C@H](Cc3ccccc3)NC(=O)CCc3cc(Cl)ccc3-n3cnnn3)nc2Cl)cc1 [Comp Ex 1, reference compound]
Q) In this exercise, place the 3 compounds in ascending sequence of their recorded Cmax. Field: ranking. Enter the labels in the order requested.
A) C, B, A

====

biological target: Human Factor XIa (Homo sapiens (Human), UniProt P03951); experiment: Factor XIa enzyme activity (chromogenic substrate S-2366); type: biochemical; settings: human Factor XIa 0.1 U/mL, 300 μM S-2366, pH7.4; read-out: In vitro FXIa inhibitory activity IC50
pIC50: −log10 of the molar value.
reported_endpoint: pIC50

> print(dat)
                                   molecule  meas.value
1  COC(=O)Nc1ccc(-c2[nH]c(Cn3ccc(-c4cc(Cl)ccc4-n4cnnn4)cc3=O)nc2Cl)cc1 [Example 57]        8.62
2  COC(=O)Nc1ccc(-c2cnc(C3CCc4nc(-c5cc(Cl)ccc5-n5cnnn5)cc(=O)n43)[nH]2)cc1 (stereo not shown) [Example 41]        8.19
3  COC(=O)Nc1ccc(-c2nnc(C3CCc4cc(-c5cc(Cl)ccc5-n5cnnn5)cc(=O)n43)[nH]2)cc1 (stereo not shown) [Example 245]        7.77
4  COC(=O)Nc1ccc(-c2cnc([C@@H]3CCc4cc(-c5cc(C)ccc5-n5cnnn5)cc(=O)n43)[nH]2)cc1 [Example 309]        8.08
5  COC(=O)Nc1ccc(-c2cnc([C@@H]3CSc4cc(-c5cc(Cl)ccc5-n5cnnn5)cc(=O)n43)[nH]2)cc1 [Example 270]        7.96

I. COC(=O)Nc1ccc(-c2cnc(C3CCc4cc(-c5cc(Cl)ccc5-n5cnnn5)cc(=O)n43)[nH]2)s1 (stereo not shown) [Example 181]
II. COCCC(c1nc(Cl)c(-c2ccc(NC(=O)OC)cc2)[nH]1)n1ccc(-c2cc(Cl)ccc2-n2cnnn2)cc1=O (stereo not shown) [Example 264]
Q) Decide: I or II , by lowest recorded pIC50. Give the label of your selection.
A) I
(I: 7.33, II: 8.21)

Recorded values, source patent US9732085B2.
